Recorded values, source patent US20240083857A1.

Each entry below carries its reported log10 of IC50.
Measured Target: K-Ras^G12C : hSOS1 interaction (Homo sapiens)
Method Summary: Biochemical assay 1: K-Ras^G12C interaction assay with hSOS1 (HTRF)
Format: binding
Experimental Parameters: E-notation values; unit inferred; read-out: Assay 1 (KRAS-SOS interaction) IC50
All values: base-10 log of IC50 in nM.

Would you please look over these solved cases?
* COc1cc2nc(C)nc(NC(C)c3ccc(-c4ccccc4CN(C)CC#N)s3)c2cc1OC (stereo not shown) | 2.21
* COc1cc2nc(C)nc(NC(C)c3cc(C)c(-c4cnc5n4CCC5)s3)c2cc1OC (stereo not shown) | 2.69
* COc1cc2nc(C)nc(NC(C)c3cc(Cl)c(Br)s3)c2cc1OC (stereo not shown) | 4.22
* COc1cc(C)c2nc(C)nc(N[C@H](C)c3cccc(Cl)c3)c2c1 | 3.35
* Cc1nc(NC(C)c2ccc(Br)s2)c2cc(NCCN3CCOCC3)ccc2n1 (stereo not shown) | 3.76
* Cc1nc(NC(C)c2ccc(-c3ccccc3CN(C)C)s2)c2cc(N3CCC(N(C)C)C3)ccc2n1 (stereo not shown) | 1.94
* COc1cc2nc(C)nc(NC(C)c3ccc(-c4c(Cl)cccc4CNC(=O)OC(C)(C)C)s3)c2cc1OC (stereo not shown) | 2.73
* COc1cc2nc(C)nc(NC(C)c3ccc(-c4c(Cl)cccc4CN)s3)c2cc1OC (stereo not shown) | 1.69

The recorded log10 of IC50 for COc1cc2nc(C)nc(NC(C)c3ccc(-c4ccc(O)nc4)s3)c2cc1OC (stereo not shown) is 2.99

The recorded log10 of IC50 for COc1ccc(-c2ccc(C(C)Nc3nc(C)nc4cc(OC)c(OC)cc34)s2)c(CN(C)C)c1 (stereo not shown) is 2.44

The recorded log10 of IC50 for `COc1cc2nc(C)nc(N[C@H](C)c3cccc(-c4ccccc4CC(N)=O)c3)c2cc1OC` is 2.39

The recorded log10 of IC50 for COc1cc2nc(C)nc(NC(C)c3ccc(-c4ccccc4C4CC(=O)N4)s3)c2cc1OC (stereo not shown) is 4.16

The recorded log10 of IC50 for Cc1nc(NC(C)c2ccc(-c3ccccc3CN(C)C)s2)c2cc(N3CCN(C)CC3)ccc2n1 (stereo not shown) is 1.66

The recorded log10 of IC50 for COc1cc2nc(C)nc(NC(C)c3ccc(-c4ccc(C#N)cc4CN(C)C)s3)c2cc1OC (stereo not shown) is 2.35

The recorded log10 of IC50 for CC(=O)NCCNc1ccc2nc(C)nc(NC(C)c3ccc(-c4ccccc4CN(C)C)s3)c2c1 (stereo not shown) is 1.77

The recorded log10 of IC50 for COc1cc2nc(C)nc(NC(C)c3ccc(-c4ccccc4C(O)Cc4ccccc4)s3)c2cc1OC (stereo not shown) is 3.74
